# Test system: SCC-25
# PROTOCOL_NOTES: Cytotoxicity against human SCC-25 cells assessed as cell viability incubated for 96 hrs by MTT assay
# Assay type: functional, cell-based
# TEST_SETTINGS: SCC-25, 96 h
PARAMETER_MEASURED: pIC50
Value format note: pIC50 is -log10 of concentration (mol/L); just state the number.

Take a look at these entries with their results.
Could you please provide reported pIC50 for Cn1c2ccccc2c(=O)c2c(OCc3ccc(C(=O)NO)cc3)cc3c(c21)C=CC(C)(C)O3 ? Thanks!
5.78

Could you please provide reported pIC50 for Cn1c2ccccc2c(=O)c2c(OCC(=O)NO)cc3c(c21)C=CC(C)(C)O3 ? Thanks!
5.92

Could you please provide reported pIC50 for Cn1c2ccccc2c(=O)c2c(OCCCCCCC(=O)NO)cc3c(c21)C=CC(C)(C)O3 ? Thanks!
6.15

Next:
Could you please provide reported pIC50 for Cn1c2ccccc2c(=O)c2c(O)cc3c(c21)C=CC(C)(C)O3 ? Thanks!
4.85

Could you please provide reported pIC50 for COc1cc2c(c3c1c(=O)c1ccccc1n3CCCC(=O)NO)C=CC(C)(C)O2 ? Thanks!
4.44
